# credit: PubChem BioAssay (NCATS)

Test: qHTS assay for small molecule antagonists of the retinoid-related orphan receptor gamma (ROR-gamma) signaling pathway - cell viability counter screen (AID 720652);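 also: CHO reporter cells with doxycycline-induced ROR-gamma expression; compound exposure lasted 16 hr before ATP read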
Details: RORgamma reporter cell line viability counter screen; series mostly up to 92.2 µM
Inconclusive results are not listed. Active and inactive are the calls of the source. Calls follow the shape of the dose curve; as a rule, active = well fitted cell-killing curve with a large enough effect in the repeat runs; inconclusive = weak or mixed curves, or effect the other way; inactive = flat fitted curve, though single readings scatter.

{"mol smiles": "c1ccc(-c2ccccc2)cc1", "outcome": "inactive"}
{"mol smiles": "CC(C)(C)OO", "outcome": "inactive"}
{"mol smiles": "COc1ccc(C=O)cc1OC", "outcome": "inactive"}
{"mol smiles": "O=C=NC1CCCCC1", "outcome": "inactive"}
{"mol smiles": "Cc1cccc([N+](=O)[O-])c1", "outcome": "inactive"}
{"mol smiles": "CCNc1nc(Cl)nc(NC(C)C)n1", "outcome": "inactive"}
{"mol smiles": "Cc1ccccc1N", "outcome": "inactive"}
{"mol smiles": "CCOc1ccc(N)cc1", "outcome": "inactive"}
{"mol smiles": "CC(C)(C)OOC(C)(C)C", "outcome": "inactive"}

====

Test: Cell Viability - H-4-II-E (AID 543);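 also: cells exposed to compound for 40 hours; nearly all actives have a fitted effect of over 35% in size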
Conditions: H-4-II-E rat hepatoma viability; series mostly up to 92.2 µM
Results filed as inconclusive are left out. Active and inactive are the calls of the source. Calls follow the shape of the dose curve; as a rule, active = well fitted cell-killing curve with a large enough effect; inconclusive = small, poorly fitted or top-dose-only effect; inactive = flat fitted curve, though single readings scatter.
Outcomes: 1 for active, -1 for inactive

{"compound": "ClC(Cl)=C(Cl)Cl", "qualitative label": -1}
{"compound": "CCCCOC(=O)c1ccccc1C(=O)OCCCC", "qualitative label": -1}
{"compound": "C=C(C)C#N", "qualitative label": -1}
{"compound": "COP(=S)(OC)Oc1ccc([N+](=O)[O-])cc1", "qualitative label": -1}
{"compound": "C=CC1CC=CCC1 (stereo unspecified)", "qualitative label": -1}
{"compound": "O=C(Cl)/C=C/C(=O)Cl", "qualitative label": -1}
{"compound": "C=CC(C)=O", "qualitative label": -1}
{"compound": "CCCSC(=O)Cl", "qualitative label": -1}
{"compound": "CCOc1ccc(N)cc1", "qualitative label": -1}
{"compound": "COc1ccc(C=O)cc1OC", "qualitative label": -1}
{"compound": "CCCCCCCC(=O)Cl", "qualitative label": -1}
{"compound": "ClCBr", "qualitative label": -1}
{"compound": "O=C(O)COc1ccc(Cl)cc1Cl", "qualitative label": -1}
{"compound": "CCOP(=S)(OCC)SCSC(C)(C)C", "qualitative label": -1}
{"compound": "ClC(Cl)=C(Cl)C(Cl)=C(Cl)Cl", "qualitative label": -1}
{"compound": "Cc1ccc(O)c(C)c1", "qualitative label": -1}
{"compound": "C=CCc1ccc2c(c1)OCO2", "qualitative label": -1}
{"compound": "O=NN(CCO)CCO", "qualitative label": -1}
{"compound": "COc1ccc(N)cc1", "qualitative label": -1}
{"compound": "CCSC(=O)Cl", "qualitative label": -1}
{"compound": "O=C1C(Cl)=C(Cl)C(=O)C(Cl)=C1Cl", "qualitative label": 1}
{"compound": "Nc1c(Cl)c(Cl)nc(C(=O)O)c1Cl", "qualitative label": -1}
{"compound": "BrCCBr", "qualitative label": -1}
{"compound": "Nc1ccc(Br)cc1", "qualitative label": -1}
{"compound": "Clc1cc(Cl)c(-c2cc(Cl)c(Cl)cc2Cl)cc1Cl", "qualitative label": -1}
{"compound": "CC(C)(c1ccccc1)c1ccc(O)cc1", "qualitative label": -1}
{"compound": "C=C(C)C(=O)OCC1CO1 (stereo unspecified)", "qualitative label": -1}
{"compound": "CCN(CC)c1ccccc1", "qualitative label": -1}
{"compound": "Brc1ccc(Oc2cc(Br)c(Br)cc2Br)c(Br)c1", "qualitative label": -1}
{"compound": "CC(C)(C)OO", "qualitative label": -1}
{"compound": "c1nc[nH]n1", "qualitative label": -1}
{"compound": "Clc1nc(Cl)nc(Nc2ccccc2Cl)n1", "qualitative label": -1}
{"compound": "CC(Cl)Cl", "qualitative label": -1}
{"compound": "C=CCc1ccc(OC)cc1", "qualitative label": -1}
{"compound": "C/C=C/c1ccc2c(c1)OCO2", "qualitative label": -1}
{"compound": "c1ccc(-c2ccccc2)cc1", "qualitative label": -1}

====

Experiment: qHTS for activators of Nrf2/ARE signaling pathway screened against the NCATS CANVASS Library (AID 1347391); also: nearly all actives have a fitted effect of over 60% in size; as to activation: 0% is about no effect
Settings: ARE-bla HepG2, beta-lactamase reporter, 16 h; series mostly up to 46.1 µM
Inconclusive results are not listed. Calls of active or inactive are those of the source. Calls follow the shape of the dose curve; as a rule, active = well fitted activation curve with a large enough effect; inconclusive = small, poorly fitted or top-dose-only effect; inactive = no such curve, though single readings can be large or run the other way.
Outcomes: active, inactive

{"molecule": "c1ccc2nc3c(cc2c1)[nH]c1ccccc13", "qualitative label": "active"}
{"molecule": "CC[C@]12C=CCN3CC[C@]4(C(=C(C(=O)OC)C1)Nc1ccccc14)[C@@H]32", "qualitative label": "inactive"}
{"molecule": "CO[C@@H](/C=C/CC/C=C/C(=O)O)[C@@H](O)[C@H](C)/C=C(\\C)[C@H](O)[C@H](C)C(=O)CCCC1CC(=O)NC(=O)C1", "qualitative label": "inactive"}
{"molecule": "CO[C@H]1[C@H](O[C@H]2CC[C@]3(C=O)[C@H]4CC[C@]5(C)[C@@H](C6=CC(=O)OC6)CC[C@]5(O)[C@@H]4CC[C@]3(O)C2)O[C@H](C)[C@H](O)[C@@H]1OC", "qualitative label": "inactive"}
{"molecule": "CO[C@H]1C[C@H](O[C@H]2[C@@H](O)C[C@H](O[C@H]3CC[C@]4(C=O)[C@H]5CC[C@]6(C)C(C7=CC(=O)OC7)CC[C@]6(O)[C@@H]5CC[C@]4(O)C3)O[C@@H]2C)O[C@H](C)[C@H]1O[C@H]1C[C@@H](OC)[C@@H](O[C@@H]2O[C@H](CO)[C@@H](O)[C@H](O)[C@H]2O)[C@@H](C)O1 (some centres not stated)", "qualitative label": "inactive"}
{"molecule": "C=C(C)[C@H]1C(=O)c2c3c(cc4c5c(n1c24)[C@@]1(C)[C@@H](CC[C@H]2[C@](C)(/C=C/C=C(\\C)C(=O)O)[C@@H](O)CC[C@@]21C)C5)C1=CC(C)(C)OC(C)(C)[C@H]1[C@@H]3O", "qualitative label": "inactive"}
{"molecule": "C1=C2CCCN[C@H]2C2CC1[C@H]1CCCCN1C2 (some centres not stated)", "qualitative label": "inactive"}

====

Test: Cell Viability - LYMP2-022 (AID 987);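 also: cells exposed to compound for 24 hr; nearly all actives have a fitted effect of over 55% in size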
Conditions: LYMP2-022 lymphoblastoid cell viability; series mostly up to 92.2 µM
From the text: NIH Chemical Genomics Center [NCGC] NIH Molecular Libraries Screening Centers Network [MLSCN] National Institutes of Environmental Health Sciences [NIEHS] National Toxicology Program [NTP] We have developed a 1536-well cell-based assay for quantitative high throughput screening (qHTS) against a number of cell lines to determine in vitro cytotoxicity of small molecules. […] 8. Detection; Luminescence; Viewlux plate reader […]
Inconclusive results are not listed. The source made the active and inactive calls. Calls come from the whole dose curve; as a rule, active = well fitted cell-killing curve with a large enough effect; inconclusive = small, poorly fitted or top-dose-only effect; inactive = flat fitted curve, though single readings scatter.
Outcomes: YES (active), NO (inactive)

{"molecule": "Cc1ccc2ccccc2c1", "qualitative label": "NO"}
{"molecule": "C=CC(=C)C", "qualitative label": "NO"}
{"molecule": "ClCBr", "qualitative label": "NO"}
{"molecule": "CCOc1ccc(N)cc1", "qualitative label": "NO"}
{"molecule": "Oc1ccc(Cl)cc1Cl", "qualitative label": "NO"}
{"molecule": "C=C(Cl)Cl", "qualitative label": "NO"}
{"molecule": "Nc1ccc(Br)cc1", "qualitative label": "NO"}
{"molecule": "CCCSC(=O)Cl", "qualitative label": "NO"}
{"molecule": "O=[N+]([O-])c1ccc(Cl)c(Cl)c1", "qualitative label": "NO"}
{"molecule": "ClC(Cl)(Cl)c1ccccc1", "qualitative label": "NO"}
{"molecule": "CC(Cl)Cl", "qualitative label": "NO"}
{"molecule": "C=CC(N)=O", "qualitative label": "NO"}
{"molecule": "CCNc1nc(Cl)nc(NC(C)C)n1", "qualitative label": "NO"}
{"molecule": "C=CCOC(C)=O", "qualitative label": "NO"}
{"molecule": "O=C(O)COc1ccc(Cl)cc1Cl", "qualitative label": "NO"}
{"molecule": "OCC(Br)CBr (configuration not stated)", "qualitative label": "NO"}
{"molecule": "O=C=NC1CCCCC1", "qualitative label": "NO"}
{"molecule": "O=[N+]([O-])c1cccc2ccccc12", "qualitative label": "NO"}
{"molecule": "CCCCOC(=O)c1ccccc1C(=O)OCCCC", "qualitative label": "NO"}
{"molecule": "CC(C)(C)OO", "qualitative label": "NO"}
{"molecule": "Nc1c(Cl)c(Cl)nc(C(=O)O)c1Cl", "qualitative label": "NO"}
{"molecule": "CC(=O)[O-].CC(=O)[O-].O.O.O.[Pb+2]", "qualitative label": "NO"}
{"molecule": "CCSC(=O)Cl", "qualitative label": "NO"}
{"molecule": "O=NN(CCO)CCO", "qualitative label": "NO"}
{"molecule": "C=C(C)C(=O)OCC1CO1 (configuration not stated)", "qualitative label": "NO"}
{"molecule": "Clc1cccc(C(Cl)(Cl)Cl)n1", "qualitative label": "NO"}
{"molecule": "COC1=CC(=O)OC(CCc2ccccc2)C1 (configuration not stated)", "qualitative label": "NO"}
{"molecule": "CCC[CH2][Sn]([Cl])([Cl])[Cl]", "qualitative label": "NO"}
{"molecule": "Cc1cccc([N+](=O)[O-])c1", "qualitative label": "NO"}
{"molecule": "Cc1cccc(C#N)c1", "qualitative label": "NO"}
{"molecule": "CCCC(=O)Cl", "qualitative label": "NO"}
{"molecule": "Clc1ccc2ccccc2c1", "qualitative label": "NO"}
{"molecule": "Clc1nc(Cl)nc(Cl)n1", "qualitative label": "NO"}
{"molecule": "N#CCCCl", "qualitative label": "NO"}
{"molecule": "CCCCCCCCCc1ccc(O)cc1", "qualitative label": "NO"}
{"molecule": "COC(=O)NC(=S)Nc1ccccc1NC(=S)NC(=O)OC", "qualitative label": "NO"}
{"molecule": "Brc1ccc(Oc2cc(Br)c(Br)cc2Br)c(Br)c1", "qualitative label": "NO"}
{"molecule": "CCOP(=S)(OCC)Oc1ccc([N+](=O)[O-])cc1", "qualitative label": "NO"}
{"molecule": "Cc1ccc(O)c(C)c1", "qualitative label": "NO"}
{"molecule": "CN=C=S", "qualitative label": "NO"}
{"molecule": "S=C=Nc1cccc2ccccc12", "qualitative label": "NO"}
{"molecule": "Brc1ccccc1", "qualitative label": "NO"}
{"molecule": "C=CCc1ccc2c(c1)OCO2", "qualitative label": "NO"}
{"molecule": "C[C@]12CC[C@H]3[C@@H](CCC4=CC(=O)CC[C@@]43C)[C@@H]1CC[C@@H]2O", "qualitative label": "NO"}
{"molecule": "C/C=C/c1ccc2c(c1)OCO2", "qualitative label": "NO"}
{"molecule": "COC1=CC(=O)O[C@@H](/C=C/c2ccc3c(c2)OCO3)C1", "qualitative label": "NO"}
{"molecule": "CCOP(=S)(OCC)SCSC(C)(C)C", "qualitative label": "NO"}
{"molecule": "CC(C)(C)OOC(C)(C)C", "qualitative label": "NO"}
{"molecule": "CC(O)CCl (configuration not stated)", "qualitative label": "NO"}
{"molecule": "COP(=S)(OC)Oc1ccc([N+](=O)[O-])cc1", "qualitative label": "NO"}
{"molecule": "BrCCBr", "qualitative label": "NO"}
{"molecule": "C[N+](C)(C)Cc1ccccc1", "qualitative label": "NO"}
{"molecule": "OCC1CO1 (configuration not stated)", "qualitative label": "NO"}
{"molecule": "O=NN(c1ccccc1)c1ccccc1", "qualitative label": "NO"}
{"molecule": "ClC1=C(Cl)C2(Cl)C3C4CC(C5OC45)C3C1(Cl)C2(Cl)Cl (configuration not stated)", "qualitative label": "YES"}
{"molecule": "CCCCCCCC(=O)Cl", "qualitative label": "NO"}
{"molecule": "C=CC1CC=CCC1 (configuration not stated)", "qualitative label": "NO"}
